Attribution: PubChem BioAssay (NCI)

Please go through the items and note down their TGI.
- Tested on: SK-MEL-5 melanoma
- testMethodNotes: NCI tumour cell line growth inhibition, 48 h

Ask: Param readout = TGI; param system = SK-MEL-5 melanoma; param query = CN(C)c1nc(N(C)C)nc(N(C)CN(C)c2ccccc2)n1 ; response: value
Reply: > 100 µM

Ask: Identify the measured TGI of O=C(Nc1ccc(Cl)cc1)c1cc(S(=O)(=O)Nc2n[nH]c(=O)[nH]2)c(SSc2cc(Cl)c(C(=O)Nc3ccc(Cl)cc3)cc2S(=O)(=O)Nc2n[nH]c(=O)[nH]2)cc1Cl for SK-MEL-5 melanoma.
Reply: > 100 µM

Ask: Missing value: TGI, SK-MEL-5 melanoma, entry NC(=S)N/N=C(/CC(=O)c1ccc([N+](=O)[O-])cc1)C(=O)Nc1ncc([N+](=O)[O-])s1 . Fill in?
Reply: > 100 µM

Ask: Provide the documented TGI with SK-MEL-5 melanoma as the system for NC(CCCCCP(=O)(O)O)C(=O)O (stereo unspecified)
Reply: > 100 µM

Ask: Test system SK-MEL-5 melanoma; read-out TGI; what value for O=[N+]([O-])c1cccc(C2SCc3nc4ccccc4n32)c1 (stereo unspecified) ?
Reply: 52.8 µM

Ask: Look up TGI with SK-MEL-5 melanoma for this compound: COc1ccc(/C=C/c2cc(OC)c(O[Si](C)(C)C(C)(C)C)c(OC)c2)cc1
Reply: > 100 µM

Ask: Any idea what TGI came out for CCCOc1ccc(/C(Cl)=C(\C=O)c2ccc(OC)c(OC)c2)cc1OCCC on SK-MEL-5 melanoma?
Reply: 46.3 µM

Ask: What value of TGI on SK-MEL-5 melanoma does O=C(NC(=O)c1cn(CCN2CCNCC2)c(=O)[nH]c1=O)OCc1ccccc1 have?
Reply: > 100 µM

Ask: Any idea what TGI came out for COc1ccc(Nc2c3ccccc3nc3c2c2ccccc2n3C)cc1 on SK-MEL-5 melanoma?
Reply: 37.4 µM

Ask: Form field: TGI recorded for COc1c(OC(C)=O)cc2c(OC(C)=O)c1CC(C)CC(OC)C(O)C(C)/C=C(\C)C(OC(N)=O)C(OC)/C=C\C=C(/C)C(=O)N2 (stereo unspecified) with SK-MEL-5 melanoma (enter value)
Reply: > 100 µM

Ask: Value wanted: TGI (SK-MEL-5 melanoma) of entry C=C1c2nc3ccccc3n2C=C(c2ccc(Cl)cc2)N1c1ccc(OCCN2CCOCC2)cc1
Reply: 71.5 µM

----------
- Test system: OVCAR-5 ovarian
- testMethodNotes: NCI tumour cell line growth inhibition, 48 h
attributeMeasured: TGI

Ask: TGI for COC(=O)CCC(NC(=S)N/N=C(\C)c1ccccn1)C(=O)OC (centres undefined) ?
Reply: > 100 µM

Ask: For the compound C=CCCCCOC1C=CC(OC(C)=O)C(COC(C)=O)O1 (centres undefined) , what TGI is on record?
Reply: > 100 µM

Ask: So what's the measured TGI for this one? O=C1C=C2S[C@H]3C[C@]2(C=C1Br)c1c(c(O)c2c4c1=NCCC=4C=N2)N3
Reply: 3.25 µM

Ask: Entry Clc1cc2nc(C3CCCO3)[nH]c2cc1Cl (centres undefined) has what TGI?
Reply: > 100 µM

Ask: What value of measured TGI is listed for CCOP(=O)(CCP(=O)(OCC)OCC)OCC.C[CH2][Sn]([Cl])([Cl])[CH2]C ?
Reply: > 100 µM

Ask: Find the recorded TGI belonging to CN(CCCNC(=O)c1cn(C)c2c1ccc1cc(Cl)ccc12)CCCNC(=O)c1cn(C)c2c1ccc1cc(Cl)ccc12 and report it.
Reply: 18.3 µM

Ask: // returns reported TGI for input C1CNCCN2CCCNCCN(C1)CC2
Reply: > 100 µM

Ask: Looking for the measured TGI of CCCCC1Cc2cc(O)ccc2-c2n1c1cc(O)ccc1[n+]2C (centres undefined) (tested in a mixture with another compound) , can you help?
Reply: > 100 µM

Ask: Dear colleague, I am looking for the recorded TGI of the following compound: Cc1cccc(CN(C)c2ccc(CO)c(Cl)c2)c1
Reply: 4.87 µM
